- Test Details: RPL19A-GFP modulators, yeast TOR pathway, confirmation, cell-based, S. cerevisiae, flow cytometry, cherry picks, mother/daughter gates (AID 2270)
- Experimental Context: S. cerevisiae RPL19A-GFP strain, 3 h, measured here: mother cell gate, at 10 µM, stronger effect = lower value, 100 = same GFP as DMSO wells
Measurement Type: GFP response vs DMSO (%)

>>> print(df.to_string())
                                    compound  numeric_result
 0       Cn1ncc(S(=O)(=O)Cc2ccccc2)c(Cl)c1=O            87.7
 1  CCOC(=O)CS(=O)(=O)c1nc(-c2ccc(F)cc2)cc(C(F)(F)F)n1             102
 2       O=C(Oc1c(Cl)cc(Cl)c2cccnc12)c1ccco1             100
 3             O=C1c2ccsc2SCCN1Cc1ccc(Cl)cc1              97
 4  CCCc1[nH]nc2c1C(c1cccnc1)C(C#N)=C(N)O2 (stereo unspecified)            99.2
 5  CCC(=O)Nc1nc(C)c(-c2csc(Nc3cccc(C(=O)O)c3)n2)s1            97.3
 6  COC(=O)c1ccc(/C=C/C(=O)c2ccc(OC)c(OC)c2)cc1            99.6
 7  CNC(=O)/C(C#N)=C/c1c(N(Cc2ccccc2)Cc2ccccc2)nc2ccccn2c1=O            96.9
 8  Cc1ccc(C2=NN(S(C)(=O)=O)C(c3ccc4c(c3)OCO4)C2)cc1 (stereo unspecified)             102
 9            O=C1c2ccsc2SCCN1Cc1c(F)cccc1Cl            93.9
10    COc1ccccc1CN1C(=O)c2cccc3cccc(c23)C1=O             100
